Just for reference, the Immune Epitope Database (IEDB) is where these values come from.

molecular target: HLA-B*08:02; test: IEDB peptide-MHC binding, purified MHC/direct/fluorescence; filed as Kd, often an IC50 or EC50 that approximates it; bounds were set here for any values at or beyond the usual limits of such assays; details: source organism: Variola virus
recorded_endpoint: Kd

So for SQIETGTPF , the logged Kd turned out to be ≥ 20 µM

---

target: HLA-A*29:02; assay: IEDB peptide-MHC binding, purified MHC/competitive/radioactivity; filed as Kd, often an IC50 or EC50 that approximates it; bounds were set here for any values at or beyond the usual limits of such assays; conditions: source organism: Lassa virus GA391
pKd: −log10 of the molar value.
recorded_endpoint: pKd

So for VFRTSTPKVV , the logged pKd turned out to be ≤ 4.15

---

biological target: HLA-A*02:06; assay: IEDB peptide-MHC binding, purified MHC/competitive/radioactivity; filed as Kd, often an IC50 or EC50 that approximates it; bounds were set here for any values at or beyond the usual limits of such assays; details: source organism: Dengue virus 1 Singapore/S275/1990
recorded_endpoint: pKd
Scale note: pKd = -log10(concentration in M).

MASSVLLWMA tested on HLA-A*02:06 gave pKd: 7.04

---

biological target: HLA-B*48:01; assay: IEDB peptide-MHC binding, purified MHC/direct/fluorescence; filed as Kd, often an IC50 or EC50 that approximates it; bounds were set here for any values at or beyond the usual limits of such assays; settings: source organism: Cryptosporidium parvum
pKd: −log10 of the molar value.
recorded_endpoint: pKd

So for RKWGLDFCY , the logged pKd turned out to be ≤ 4.70

---

# Kd per record follows
molecular target: HLA-A*24:03; experiment: IEDB peptide-MHC binding, purified MHC/direct/fluorescence; filed as Kd, often an IC50 or EC50 that approximates it; bounds were set here for any values at or beyond the usual limits of such assays; conditions: source organism: Zaire ebolavirus

So for ILNRKAIDF , the logged Kd turned out to be ≥ 20 µM

So for SMHYKLDEV , the logged Kd turned out to be ≥ 20 µM

Further cases:
So for LESLTDREL , the logged Kd turned out to be ≥ 20 µM

---

target: HLA-C*06:02; experiment: IEDB peptide-MHC binding, purified MHC/direct/fluorescence; filed as Kd, often an IC50 or EC50 that approximates it; bounds were set here for any values at or beyond the usual limits of such assays; conditions: source organism: Escherichia coli K-12
recorded_endpoint: Kd (nM)
Answer with a number only, understood to be in nM.

So for RQWGMGFLL , the logged Kd turned out to be 1710

---

target: HLA-A*01:01; test: IEDB peptide-MHC binding, purified MHC/competitive/radioactivity; filed as Kd, often an IC50 or EC50 that approximates it; bounds were set here for any values at or beyond the usual limits of such assays; conditions: source organism: Mammarenavirus guanaritoense
# Kd per record follows
Answer with a number only, understood to be in µM.

So for EFSRSILWDY , the logged Kd turned out to be 0.748

Next, consider the following sequence.
So for GTDPYRPSF , the logged Kd turned out to be 7.15

---

target: HLA-B*83:01; experiment: IEDB peptide-MHC binding, purified MHC/competitive/fluorescence; filed as Kd, often an IC50 or EC50 that approximates it; bounds were set here for any values at or beyond the usual limits of such assays; conditions: source organism: Gorilla gorilla
recorded_endpoint: Kd

So for VMAPRTLVL , the logged Kd turned out to be ≥ 5 µM
